System: LOX IMVI melanoma
Assay: NCI tumour cell line growth inhibition, 48 h
Quantity kind: TGI

CCSc1c2cc(OC)ccc2nc2ccc(OC)cc12    > 76.9 µM
CCOC(=O)C1Cc2ccc(C)cc2C1=O (centres undefined)    > 100 µM
CC(C)CC1C(=O)OC(C)(C)OC1=O    > 100 µM
CC(C)OC(=O)NNc1c(Cl)cc(Cl)cc1Cl    > 100 µM
Nc1ncnc2c1ncn2C1(CO)OC(CO)C(O)C1O (centres undefined)    > 100 µM

Provide value of TGI for this record tested with LOX IMVI melanoma: Cc1ccc(C)c(NC(=O)C(=O)C(C2C(C)CC(=O)C2CC(=O)O)[N+](=O)[O-])c1 (centres undefined)
> 100 µM

---

Tested on: IGROV1 ovarian
Test: NCI tumour cell line growth inhibition, 48 h
Listed here: items and their measured TGI.

Please review the entries below; each comes with its answer.
CC(=O)CC(=O)Nc1ccc(OS(N)(=O)=O)cc1    > 100 µM
CC(C)(CO)CNc1nc(N)nc(Cl)c1C=O    46.4 µM
O=C1Sc2sc(=S)sc2SC1c1ccccc1 (centres undefined)    > 100 µM
CCOC(=O)c1sc2c(c1OC(=O)c1ccco1)c(=O)n(-c1ccccc1)c(=S)n2-c1ccccc1    36.3 µM
COc1ccc(-c2c(C#N)c(N)nc(Sc3ccccc3N)c2C#N)cc1    > 56.8 µM

Reported TGI, compound "O=C(O)c1cc(-c2ccc3cc(O)c(O)cc3c2)ccc1O" : ____
> 12.5 µM

Reported TGI, compound "CCOC(=O)/C(=C\n1c(=O)sc2ccccc21)C(=O)c1ccccc1" : ____
> 100 µM

Reported TGI, compound "O=C(Nc1cccc2[nH]c(C(F)(F)F)nc12)c1ccc(Br)cc1F" : ____
32.4 µM

Reported TGI, compound "CC1=CC2=C(C=O)C(=O)[C@](C)(O)[C@@H](O)C2=CO1" : ____
> 100 µM

---

Test system: UO-31 renal
Assay: NCI tumour cell line growth inhibition, 48 h
Listed here: items and their measured TGI.

Please review the entries below; each comes with its answer.
O=C(c1ccsc1)c1nccc2c1cnc1ccccc12    > 100 µM
CCSc1c2cc(OC)ccc2nc2ccc(OC)cc12    > 60.7 µM
CN1C=C(C(N)=O)Cc2ccsc21    > 100 µM
C=CCN=C1NC(=O)C(CC(=O)Nc2ccc([N+](=O)[O-])cc2[N+](=O)[O-])S1 (stereo not given)    > 100 µM

Reported TGI, molecule O=C1Sc2sc(=S)sc2SC1c1ccccc1 (stereo not given) : ____
> 86.7 µM

Reported TGI, molecule "Nc1nc2cc(COc3ccc(C(=O)O)cc3)ccc2nc1-c1ccccc1" : ____
> 10 µM

Reported TGI, molecule "COc1cc(C)cc2c1C(=O)C(NC(C)=O)=CC2=O" : ____
> 100 µM

Reported TGI, molecule CC1CCC2C(C(=O)O[C@H]3C4C=CO[C@@H](OC5OC(CO)C(O)C(O)C5O)C4[C@@]4(CO)O[C@@H]34)=CO[C@@H](OC3OC(CO)C(O)C(O)C3O)C12 (stereo not given in full) : ____
> 10 µM

Reported TGI, molecule CCOC(=O)CCC(NC(=O)c1ccc(Oc2nc3cc(N)cc(N)c3nc2-c2ccccc2)cc1)C(=O)OCC (stereo not given) : ____
> 100 µM

Reported TGI, molecule "CC(=O)NC1=C(NCCO)C(=O)c2ccccc2C1=O" : ____
> 50 µM
